- study-system: human TRPA1 (Homo sapiens (Human))
- test-details: Measurement of TRPA1 antagonist activity (1): intracellular calcium increase
- Type: cell-based
- settings: 293T cells transfected with human TRPA1 expression plasmid; allylisothiocyanate 20 μM stimulation; intracellular calcium fluorescence; read-out: hTRPA1 IC50
- Description: Measurement of TRPA1 Antagonist Activity (1) Human TRPA1 Expression Plasmid […] The 384 well plate was recovered, and the medium was removed. […] After 10 min, allylisothiocyanate (12 μL) was further added at a final concentration of 20 μM, and changes in the relative fluorescence intensity after addition of allylisothiocyanate were measured for 5 min. […]
measurement-label: IC50 (nM)

Examples with answers:
INSERT INTO assay_data (chem_smiles, unit_descriptor, value_measured) VALUES
  ('O=C(NCc1ccc(F)c(-c2ccc(C(F)(F)F)cc2O)c1)[C@@H]1CCCN1S(=O)(=O)c1cc2ccccc2o1', 'nM', 360),
  ('O=C(NCc1ccc(Oc2ccnc(C(F)(F)F)c2)cc1)[C@@H]1CCCN1S(=O)(=O)c1cc2ccccc2o1', 'nM', 88),
  ('O=C(NCc1cccc(-c2ccc(C(F)(F)F)cn2)c1)[C@@H]1CCCN1S(=O)(=O)c1cc2ccccc2o1', 'nM', 1.2);

(I) O=C(NCc1cccc(Oc2ccc(C(F)(F)F)cc2)c1)[C@@H]1CCCN1S(=O)(=O)c1cc2ccccc2o1
(II) O=C(NCc1cc(-c2ccc(C(F)(F)F)cn2)c(O)cn1)[C@@H]1CCCN1S(=O)(=O)c1cc2ccccc2o1
(III) N#Cc1ccc(COc2cccc(CNC(=O)[C@@H]3CCCN3S(=O)(=O)c3cc4ccccc4o3)c2)cc1
(IV) CN(C)c1cccc(COc2cccc(CNC(=O)[C@@H]3CCCN3S(=O)(=O)c3cc4cc(F)ccc4o3)c2)c1
[ask] List from greatest to least IC50. Order the labels as requested and list them.
[reply] I, IV, III, II

----------
- study-system: human TRPA1 (Homo sapiens (Human), UniProt O75762)
- Sequence (O75762 whole entry): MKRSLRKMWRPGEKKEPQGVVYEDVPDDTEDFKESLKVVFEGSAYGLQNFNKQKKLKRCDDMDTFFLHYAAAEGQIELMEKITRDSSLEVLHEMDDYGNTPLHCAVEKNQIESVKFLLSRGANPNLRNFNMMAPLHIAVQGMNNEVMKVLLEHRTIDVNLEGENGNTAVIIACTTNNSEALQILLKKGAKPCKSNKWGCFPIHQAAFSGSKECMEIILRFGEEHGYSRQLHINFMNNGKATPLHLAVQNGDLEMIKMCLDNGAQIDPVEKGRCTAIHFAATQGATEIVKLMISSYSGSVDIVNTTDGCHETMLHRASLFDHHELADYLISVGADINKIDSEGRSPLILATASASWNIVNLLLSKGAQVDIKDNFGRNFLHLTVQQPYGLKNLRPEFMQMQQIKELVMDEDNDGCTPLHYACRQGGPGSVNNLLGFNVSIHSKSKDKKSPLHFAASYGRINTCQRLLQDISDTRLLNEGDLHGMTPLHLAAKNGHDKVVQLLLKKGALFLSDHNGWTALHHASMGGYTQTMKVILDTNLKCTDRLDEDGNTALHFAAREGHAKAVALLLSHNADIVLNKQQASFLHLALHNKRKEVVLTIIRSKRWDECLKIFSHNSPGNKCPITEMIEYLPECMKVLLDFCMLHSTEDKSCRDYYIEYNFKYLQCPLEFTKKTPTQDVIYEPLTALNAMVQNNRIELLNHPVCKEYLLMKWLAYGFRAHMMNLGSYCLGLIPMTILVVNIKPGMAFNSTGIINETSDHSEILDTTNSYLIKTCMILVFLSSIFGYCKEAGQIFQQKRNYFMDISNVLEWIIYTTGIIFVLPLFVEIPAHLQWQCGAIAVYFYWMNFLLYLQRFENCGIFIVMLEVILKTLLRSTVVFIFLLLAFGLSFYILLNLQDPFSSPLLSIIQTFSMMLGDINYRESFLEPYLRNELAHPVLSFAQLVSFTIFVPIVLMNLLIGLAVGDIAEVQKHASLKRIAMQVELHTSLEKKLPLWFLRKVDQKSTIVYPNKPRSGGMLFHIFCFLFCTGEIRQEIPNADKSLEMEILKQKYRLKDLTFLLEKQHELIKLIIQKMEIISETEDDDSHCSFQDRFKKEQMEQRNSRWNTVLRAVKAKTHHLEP
- test-details: Measurement of TRPA1 antagonist activity (1): intracellular calcium increase
- Type: cell-based
- settings: 293T cells transfected with human TRPA1 expression plasmid; allylisothiocyanate 20 μM stimulation; intracellular calcium fluorescence; read-out: hTRPA1 IC50
- Protocol: Measurement of TRPA1 Antagonist Activity (1) Human TRPA1 Expression Plasmid […] The 384 well plate was recovered, and the medium was removed. […] After 10 min, allylisothiocyanate (12 μL) was further added at a final concentration of 20 μM, and changes in the relative fluorescence intensity after addition of allylisothiocyanate were measured for 5 min. […]
pIC50: −log10 of the molar value.
measurement-label: pIC50

INSERT INTO results (chem_smiles, value_measured) VALUES
  ('O=C(NCc1ccc2occc2c1)[C@@H]1CCCN1S(=O)(=O)c1cc2cc(F)ccc2o1', 6.96);

(I) O=C(NCc1cc(-c2ccc(C(F)(F)F)cn2)ccn1)[C@@H]1C=CCN1S(=O)(=O)c1cc2cc(F)ccc2o1
(II) O=C(NCc1cc(-c2ccc(C(F)(F)F)cc2O)ccn1)[C@@H]1CCCN1S(=O)(=O)c1cc2cc(F)ccc2o1
[ask] Between I and II , which one has the lower reported pIC50 value? Write down the label of the entry you select.
[reply] II

----------
- study-system: human TRPA1 (Homo sapiens (Human), UniProt O75762)
- test-details: Measurement of TRPA1 antagonist activity (1): intracellular calcium increase
- Format: cell-based
- settings: 293T cells transfected with human TRPA1 expression plasmid; allylisothiocyanate 20 μM stimulation; intracellular calcium fluorescence; read-out: hTRPA1 IC50
- Method: Measurement of TRPA1 Antagonist Activity (1) Human TRPA1 Expression Plasmid […] The 384 well plate was recovered, and the medium was removed. […] After 10 min, allylisothiocyanate (12 μL) was further added at a final concentration of 20 μM, and changes in the relative fluorescence intensity after addition of allylisothiocyanate were measured for 5 min. […]
measurement-label: IC50 (nM)

Examples with answers:
INSERT INTO measurements (compound, unit_descriptor, value_measured) VALUES
  ('C[C@H](NS(=O)(=O)c1cc2ccccc2o1)C(=O)NCc1cc(-c2ccc(OC(F)(F)F)cc2)ncn1 [Example 231]', 'nM', 14),
  ('O=C(NCc1cc(-c2ccc(C(F)(F)F)nn2)ccn1)[C@@H]1CCCN1S(=O)(=O)c1cc2ccccc2o1 [Example 202]', 'nM', 4.3);

(A) O=C(NCc1cc(-c2ncc(C(F)(F)F)cn2)ccn1)[C@@H]1CCCN1S(=O)(=O)c1cc2ccccc2o1 [Example 192]
(B) O=C(NCc1ccccc1-c1ccccc1)[C@@H]1CCCN1S(=O)(=O)c1cc2cc(F)ccc2o1 [Example 78]
(C) O=C(NCc1cc(-c2ccc(C(F)(F)F)cn2)ccn1)[C@@H]1CCCN1S(=O)(=O)c1cc2ccccc2o1 [Example 179]
(D) C[C@H](NS(=O)(=O)c1cc2ccccc2o1)C(=O)NCc1cccc(OCC2CCOCC2)c1 [Example 183]
(E) O=C(NCc1cc(-c2ccc(C(F)(F)F)cn2)ccn1)[C@@H]1[C@@H](O)CCN1S(=O)(=O)c1cc2ccccc2o1 [Example 227]
[ask] List from greatest to least IC50. Order the labels as requested and list them.
[reply] D, B, E, A, C
(D: 570 nM, B: 130 nM, E: 42 nM, A: 22 nM, C: 1.3 nM)
